Please mark t if the recorded melting point is equal to or greater than 60 °C, and f if it falls below.

Problem: Could you please find out whether `COC(=O)c1ccccc1C(=O)OC` has melting point that meets 60 °C or exceeds it?
Result: f

Problem: Could you please find out whether CCN(CC)CCOc1ccc(C(O)(Cc2ccc(Cl)cc2)c2ccc(C)cc2)cc1 (stereo unspecified) has melting point that meets 60 °C or exceeds it?
Result: t

Problem: Could you please find out whether `CN(CCCN1c2ccccc2CCc2ccccc21)CC(=O)c1ccc(Cl)cc1` has melting point that meets 60 °C or exceeds it?
Result: t

Problem: Could you please find out whether `Cc1c(Cl)cc(Cl)c(O)c1Cl` has melting point that meets 60 °C or exceeds it?
Result: f

Problem: Could you please find out whether `COC(=O)c1cc(Cl)ccc1N` has melting point that meets 60 °C or exceeds it?
Result: t

Problem: Could you please find out whether `Cc1ccc(O)cc1` has melting point that meets 60 °C or exceeds it?
Result: f

Problem: Could you please find out whether CC1OC(C)OC(C)O1 (stereo unspecified) has melting point that meets 60 °C or exceeds it?
Result: f

Problem: Could you please find out whether `OC[C@H]1O[C@H]1c1ccccc1` has melting point that meets 60 °C or exceeds it?
Result: f

Problem: Could you please find out whether CC1(C)CCC(=Cc2ccc(Cl)cc2)C1(O)Cn1cncn1 (stereo unspecified) has melting point that meets 60 °C or exceeds it?
Result: t

Problem: Could you please find out whether `COc1ccccc1NC(N)=S` has melting point that meets 60 °C or exceeds it?
Result: t

Problem: Could you please find out whether `Cc1ccc(O)c(Cl)c1C` has melting point that meets 60 °C or exceeds it?
Result: f

Problem: Could you please find out whether `BrCCI` has melting point that meets 60 °C or exceeds it?
Result: f

Problem: Could you please find out whether `CC(C)C#N` has melting point that meets 60 °C or exceeds it?
Result: f

Problem: Could you please find out whether `C1CCN(CCN2CCCCC2)CC1` has melting point that meets 60 °C or exceeds it?
Result: f

Problem: Could you please find out whether `CO/C=C(/C(=O)OC)c1ccccc1Oc1cc(Oc2ccccc2C#N)ncn1` has melting point that meets 60 °C or exceeds it?
Result: t

Problem: Could you please find out whether `CCC(S)CC` has melting point that meets 60 °C or exceeds it?
Result: f

Problem: Could you please find out whether `CN1CC[C@]23c4c5ccc(O)c4O[C@H]2C(=O)CC[C@@]3(O)[C@H]1C5` has melting point that meets 60 °C or exceeds it?
Result: t

Problem: Could you please find out whether `COc1cccc(N(C)C(=S)Oc2cccc(C(C)(C)C)c2)n1` has melting point that meets 60 °C or exceeds it?
Result: t

Problem: Could you please find out whether `FC(F)(F)C(F)(F)C(F)(F)I` has melting point that meets 60 °C or exceeds it?
Result: f

Problem: Could you please find out whether `FC(Br)Br` has melting point that meets 60 °C or exceeds it?
Result: f

Problem: Could you please find out whether `CC(C)N` has melting point that meets 60 °C or exceeds it?
Result: f

Problem: Could you please find out whether `C[C@]12C=CC(=O)C=C1CC[C@@H]1[C@@H]2CC[C@@]2(C)[C@H]1CC[C@]2(C)O` has melting point that meets 60 °C or exceeds it?
Result: t

Problem: Could you please find out whether `O=C(Cl)C(c1ccccc1)c1ccccc1` has melting point that meets 60 °C or exceeds it?
Result: f

Problem: Could you please find out whether `CCCCCCCCCCCCCCCC(=O)OCC` has melting point that meets 60 °C or exceeds it?
Result: f

Problem: Could you please find out whether `CC(C)CCC#N` has melting point that meets 60 °C or exceeds it?
Result: f

Problem: Could you please find out whether `Cc1[nH]c(=O)n(C(C)C)c(=O)c1Br` has melting point that meets 60 °C or exceeds it?
Result: t

Problem: Could you please find out whether `CCCc1cccc(O)c1` has melting point that meets 60 °C or exceeds it?
Result: f

Problem: Could you please find out whether `BrC=Cc1ccccc1` has melting point that meets 60 °C or exceeds it?
Result: f

Problem: Could you please find out whether `Oc1c(I)cc(Cl)c2cccnc12` has melting point that meets 60 °C or exceeds it?
Result: t

Cited source: the OPERA property sets (Mansouri et al. 2018)
